Overview of reported IC50 across a group of compounds:
# Target of assay: Glycogen phosphorylase, liver form (Homo sapiens)
# Sequence (P06737 whole entry): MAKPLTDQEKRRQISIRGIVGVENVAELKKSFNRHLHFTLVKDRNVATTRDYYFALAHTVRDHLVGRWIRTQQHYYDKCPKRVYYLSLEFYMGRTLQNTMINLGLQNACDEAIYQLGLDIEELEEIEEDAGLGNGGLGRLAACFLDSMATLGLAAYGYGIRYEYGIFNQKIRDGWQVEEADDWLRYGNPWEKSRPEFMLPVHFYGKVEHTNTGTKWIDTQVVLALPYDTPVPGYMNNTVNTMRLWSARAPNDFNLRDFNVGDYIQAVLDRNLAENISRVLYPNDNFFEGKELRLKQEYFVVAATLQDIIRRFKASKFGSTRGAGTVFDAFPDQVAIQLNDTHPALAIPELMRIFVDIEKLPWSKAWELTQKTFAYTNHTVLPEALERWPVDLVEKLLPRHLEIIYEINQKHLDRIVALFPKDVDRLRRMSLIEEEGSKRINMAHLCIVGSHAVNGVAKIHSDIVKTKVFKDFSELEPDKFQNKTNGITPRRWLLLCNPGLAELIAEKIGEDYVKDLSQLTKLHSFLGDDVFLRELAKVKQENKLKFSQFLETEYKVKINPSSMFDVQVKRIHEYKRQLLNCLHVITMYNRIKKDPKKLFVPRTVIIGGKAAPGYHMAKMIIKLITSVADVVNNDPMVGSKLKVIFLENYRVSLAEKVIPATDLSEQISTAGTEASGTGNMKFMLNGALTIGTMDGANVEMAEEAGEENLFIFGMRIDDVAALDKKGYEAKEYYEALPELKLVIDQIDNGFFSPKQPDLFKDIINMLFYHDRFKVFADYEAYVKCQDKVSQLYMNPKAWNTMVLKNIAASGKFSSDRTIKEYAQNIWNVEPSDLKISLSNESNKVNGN
# Test method notes: Inhibition of glycogen phosphorylase in human hepatocytes assessed as glucagon stimulated glycogen content after 3 hrs by colorimetric GOD method
# Assay type: cell-based, Hepatocyte

// below: answered compounds
>>> measured_value("CC(=O)OC[C@H]1O[C@@]2(CC(c3ccc4ccccc4c3)=NO2)[C@H](OC(C)=O)[C@@H](OC(C)=O)[C@@H]1OC(C)=O")
"2.38 µM"
>>> measured_value("COc1cc(OC)cc(C2=NO[C@@]3(C2)O[C@H](CO)[C@@H](O)[C@H](O)[C@H]3O)c1")
"> 100 µM"
>>> measured_value("OC[C@H]1O[C@@]2(CC(c3ccc4c(c3)OCCO4)=NO2)[C@H](O)[C@@H](O)[C@@H]1O")
"> 100 µM"

Identify the measured IC50 of CSc1ccc(C2=NO[C@@]3(C2)O[C@H](CO)[C@@H](O)[C@H](O)[C@H]3O)cc1 for Glycogen phosphorylase, liver form (Homo sapiens). > 100 µM

How about OC[C@H]1O[C@@]2(CC(c3cc4ccccc4c4ccccc34)=NO2)[C@H](O)[C@@H](O)[C@@H]1O ? > 100 µM

How about OC[C@H]1O[C@@]2(CC(c3ccc4ccccc4c3)=NO2)[C@H](O)[C@@H](O)[C@@H]1O ? 14.2 µM

How about OC[C@H]1O[C@@]2(CC(c3ccc4c(c3)OCO4)=NO2)[C@H](O)[C@@H](O)[C@@H]1O ? > 100 µM

How about OC[C@H]1O[C@@]2(CC(c3ccc4cc(O)ccc4c3)=NO2)[C@H](O)[C@@H](O)[C@@H]1O ? 13.8 µM

###

# Target of assay: UniProtKB P00489
# Test method notes: Competitive inhibition of rabbit muscle glycogen phosphorylase b by Lineweaver-Burk plot analysis in presence of glucose 1-phosphate
Measure: pKi
Reminder that pKi is minus the log10 of a molar concentration.

Name the recorded pKi for O=C1CNC(=O)[C@@]2(N1)O[C@H](CO)[C@@H](O)[C@H](O)[C@H]2O . 4.22

###

# Target of assay: UniProtKB P00489
# Sequence (P00489 whole entry): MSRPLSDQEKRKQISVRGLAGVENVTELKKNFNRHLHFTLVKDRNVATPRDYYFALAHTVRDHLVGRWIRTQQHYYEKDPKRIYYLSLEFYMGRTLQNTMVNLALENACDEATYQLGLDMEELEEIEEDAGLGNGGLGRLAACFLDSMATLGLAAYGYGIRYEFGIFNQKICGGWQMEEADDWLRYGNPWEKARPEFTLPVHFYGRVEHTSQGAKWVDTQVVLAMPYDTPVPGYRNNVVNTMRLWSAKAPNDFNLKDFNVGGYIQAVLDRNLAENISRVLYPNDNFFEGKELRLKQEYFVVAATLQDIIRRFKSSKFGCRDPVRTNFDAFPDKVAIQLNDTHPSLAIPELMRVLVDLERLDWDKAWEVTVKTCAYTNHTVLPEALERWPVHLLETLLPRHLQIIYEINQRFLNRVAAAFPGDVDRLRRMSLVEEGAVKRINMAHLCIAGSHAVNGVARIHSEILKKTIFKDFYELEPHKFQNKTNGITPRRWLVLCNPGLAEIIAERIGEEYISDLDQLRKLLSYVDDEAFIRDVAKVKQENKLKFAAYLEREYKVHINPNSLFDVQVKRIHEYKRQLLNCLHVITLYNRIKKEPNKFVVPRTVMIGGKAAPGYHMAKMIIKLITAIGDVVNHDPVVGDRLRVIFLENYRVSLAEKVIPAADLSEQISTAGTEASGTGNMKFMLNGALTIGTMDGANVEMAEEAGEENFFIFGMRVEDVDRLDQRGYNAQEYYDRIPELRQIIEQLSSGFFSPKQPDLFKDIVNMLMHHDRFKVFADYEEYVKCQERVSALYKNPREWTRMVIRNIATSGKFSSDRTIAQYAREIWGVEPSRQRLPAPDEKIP
Measure: pIC50
Reminder that pIC50 is minus the log10 of a molar concentration.

>>> measured_value("OC[C@H]1O[C@@]2(CC(c3ccc4cc(O)ccc4c3)=NO2)[C@H](O)[C@@H](O)[C@@H]1O")
5.81
>>> measured_value("COc1cc(OC)cc(C2=NO[C@@]3(C2)O[C@H](CO)[C@@H](O)[C@H](O)[C@H]3O)c1")
3.49

We now examine a further molecule.
Name the recorded pIC50 for OC[C@H]1O[C@@]2(CC(c3cc4ccccc4c4ccccc34)=NO2)[C@H](O)[C@@H](O)[C@@H]1O . 4.09
